assay: label from the status in PepcDB records

>  <residue-string>
PPSTLIGPGDDAALVRADDGRVAVSADMLVQDRHFRLDWSSPRDVGRKAVAQNAADVAAMGARPTAFLVSLGLPPDTSIDVADGISAAIGESAEELGAGVVGGDLVQAGQVVISVTVLGDLGGRS

>  <protein production>
failed

$$$$
>  <residue-string>
MGTIESYLTNSYNYIIFNFKKLCIGGLMSAIVGAMSGVTTAFIDLFMERANYDIMHIIMSFLIYFGIIFIIGLIVSAIIGGYNVRIMKTTVEGLNVAPDWNNITDLLYRGILYIVGLVLLNIIFYFIPAILFVFGIFSLYISKIIGAFLIIISILIFIISVISLWLYSKLAEVNYSVKGFYGFFEFKEIFKMIGIRYIILVIIIAIINFIISLIVVLPLNIIDIFISYSALANSILTIIYISIKGISYALSTFVDFYLGVFSIRAVALYYKDRKGIT

>  <protein production>
failed

$$$$
>  <residue-string>
MDTPPTVFSIIIPVYNRPDEVRELLESLLIQTNSDFEVIIVEDGSSVCCDKEVDRVRELLRIQYVRVPNGGPAAARNIGARMAVGEYLLILDSDVVLPSGYIAAVKKRIEQMQADAFGGPDAAAEGFSPIQKAINYAMTSFFTTGGIRGGRRVRLDKFYPRSFNFGCKLSVYRQLGGFSEEMRFGEDIDFSLRLFKAGYNVCLFPEAFVFHKRRIDFKKFFRQVYNSGIARIHLQRRHPGSMKPVHILPALFTLGSVILAVGQFFCPWSLLPLLLLALLFLLDAWHTNRSLRIAILAVPASFVQLWGYGSGFLVACWRCYVLGHQEFRAFDKTFYN

>  <protein production>
failed

$$$$

Source: a protein production outcome set (Wang et al. 2014)
